Method: Concentration of compound A in the eye tissue after instillation
Format: in vivo, rabbit
Cond: male, eye tissue, topical, 50 μL of 1% solution; 1% test solution, 50 μL instillation, rabbit, 4 hr after instillation
Assay Readout: concentration at 4 h (ng/g)
Output spec: scalar in ng/g, unitless text.

[in] Look at this compound and give its reported concentration at 4 h. COc1cc2[nH]c(=O)c3nn[nH]c3c(=O)c2cc1OC
[out] 1380

----------
Method: Concentration of compound A in the eye tissue after instillation
Assay type: in vivo, rabbit
Cond: male, eye tissue, topical, 50 μL of 1% solution; 1% test solution, 50 μL instillation, rabbit, 1 hr after instillation
Assay Readout: concentration at 1 h (ng/g)
Output spec: scalar in ng/g, unitless text.

[in] Look at this compound and give its reported concentration at 1 h. COc1cc2[nH]c(=O)c3nn[nH]c3c(=O)c2cc1OC [Compound A]
[out] 1150

----------
Method: Concentration of compound A in the eye tissue after instillation
Type: in vivo, rabbit
Cond: male, eye tissue, topical, 50 μL of 1% solution; 1% test solution, 50 μL instillation, rabbit, 8 hr after instillation
Procedure: A test solution (0.1% or 1%) of compound A in an isotonic borate buffer solution adjusted to pH 7.4 and a test solution (0.1%) of compound B in an isotonic borate buffer solution were provided, and 50 μL of each test solution was administered as ocular instillation to male rabbits. The concentration of compound A in the eye tissue after instillation was measured as follows. […] The concentration of only compound A in the eye tissue was measured because compound B is a prodrug of compound A.
Assay Readout: concentration at 8 h (ng/g)
Output spec: scalar in ng/g, unitless text.

[in] Look at this compound and give its reported concentration at 8 h. COc1cc2[nH]c(=O)c3nn[nH]c3c(=O)c2cc1OC
[out] 660

----------
Method: Concentration of compound A in the eye tissue after instillation
Assay type: in vivo, rabbit
Cond: male, eye tissue, topical, 50 μL of 1% solution; 1% test solution, 50 μL instillation, rabbit, 2 hr after instillation
Assay Readout: concentration at 2 h (ng/g)
Output spec: scalar in ng/g, unitless text.

[in] Look at this compound and give its reported concentration at 2 h. COc1cc2[nH]c(=O)c3nn[nH]c3c(=O)c2cc1OC
[out] 1260

----------
Method: Concentration of compound A in the eye tissue after instillation
Type: in vivo, rabbit
Cond: male, eye tissue, topical, 50 μL of 1% solution; 1% test solution, 50 μL instillation, rabbit, 0.25 hr after instillation; average ± standard error
Assay Readout: concentration at 0.25 h (ng/g)
Output spec: scalar in ng/g, unitless text.

[in] Look at this compound and give its reported concentration at 0.25 h. COc1cc2[nH]c(=O)c3nn[nH]c3c(=O)c2cc1OC
[out] 6090

----------
Method: Concentration of compound A in the eye tissue after instillation
Assay type: in vivo, rabbit
Cond: male, eye tissue, topical, 50 μL of 1% solution; 1% test solution, 50 μL instillation, rabbit, 24 hr after instillation
Assay Readout: concentration at 24 h (ng/g)
Output spec: scalar in ng/g, unitless text.

[in] Look at this compound and give its reported concentration at 24 h. COc1cc2[nH]c(=O)c3nn[nH]c3c(=O)c2cc1OC
[out] 60

From: patent US7910575B2
